The compounds below have reported IC50 for mTOR kinase (Homo sapiens).
MEASUREMENT KIND: IC50

COMPOUND | RESULT
CC(C)Oc1cc(-c2cccc(NS(=O)(=O)CCCF)c2F)cc2c(N3CCOCC3)nc(-c3ccc(N)nc3)nc12 [Example 55] | 100 to 1000 nM
COc1cc(-c2cccc(NS(=O)(=O)c3ccccc3F)c2F)cc2c(N3CCOCC3)nc(-c3cnc(N)nc3)nc12 [Example 47] | 100 to 1000 nM
CCCS(=O)(=O)Nc1cccc(-c2cc(OC)c3nc(-c4ccc(NC(=O)Nc5ccncc5)cc4)nc(N4CCOCC4)c3c2)c1F [Example 34] | 1 to 100 nM
Nc1ccc(-c2nc(N3CCOCC3)c3cc(-c4cccc(NS(=O)(=O)CCCF)c4F)cc(OCC(=O)O)c3n2)cn1 [Example 59, 2,2,2-trifluoroacetate] | 1 to 100 nM
COc1cc(-c2c(Cl)ccc(NS(=O)(=O)CCCF)c2F)cc2c(N3CCOCC3)nc(-c3ccc(N)nc3)nc12 [Example 85] | 100 to 1000 nM
C[C@H]1COCCN1c1nc(-c2cnc(N)nc2)nc2ccc(-c3cccc(NS(=O)(=O)CCCF)c3F)nc12 [Example 128] | 100 to 1000 nM
COc1cc(-c2cccc(NS(=O)(=O)CCCF)c2F)cc2c(N3CCOC[C@H]3C)nc(-c3cnc(N)c(F)c3)nc12 [Example 134] | 1 to 100 nM
CC(C)Oc1cc(-c2cccc(NS(=O)(=O)CCCF)c2F)cc2c(N3CCOC[C@H]3C)nc(-c3cnc(N)nc3)nc12 [Example 64] | 100 to 1000 nM
O=S(=O)(CCCF)Nc1cccc(-c2ccc3nc(-c4cnc5[nH]ccc5c4)nc(N4CCOCC4)c3n2)c1F [Example 91] | 1 to 100 nM
Nc1ccc(-c2nc(N3CCOCC3)c3cc(-c4cccc(NS(=O)(=O)CCCF)c4F)cc(OCC4CC4)c3n2)cn1 [Example 57] | 100 to 1000 nM
Nc1ncc(-c2nc(N3CCOCC3)c3nc(-c4cccc(NS(=O)(=O)c5cc(F)ccc5F)c4F)ccc3n2)cn1 [Example 93] | 100 to 1000 nM
CNc1ncc(-c2nc(N3CCOCC3)c3nc(-c4cccc(NS(=O)(=O)CCCF)c4F)ccc3n2)cn1 [Example 121] | 100 to 1000 nM
C[C@@H]1COCCN1c1nc(-c2ccc(N)nc2)nc2ccc(-c3cccc(NS(=O)(=O)CCCF)c3F)nc12 [Example 96] | 100 to 1000 nM
Nc1ncc(-c2nc(N3CCOCC3)c3nc(-c4cccc(NS(=O)(=O)CCCF)c4F)ccc3n2)cn1 [Example 87] | 1 to 100 nM
Nc1cc(C(F)(F)F)c(-c2nc(N3CCOCC3)c3nc(-c4cccc(NS(=O)(=O)CCCF)c4F)ccc3n2)cn1 [Example 94] | 1 to 100 nM
COc1cc(-c2cccc(NS(=O)(=O)c3ccc(F)cc3F)c2F)cc2c(N3CCOCC3)nc(-c3cnc(N)nc3)nc12 [Example 24] | 100 to 1000 nM
CNC(=O)Nc1ccc(-c2nc(N3CCOCC3)c3cc(-c4cccc(NS(=O)(=O)CCCF)c4F)cc(OC)c3n2)cc1 [Example 32] | 1 to 100 nM
COc1cc(-c2cccc(NS(=O)(=O)c3c(F)cccc3F)c2F)cc2c(N3CCOCC3)nc(-c3cnc(N)nc3)nc12 [Example 13] | 100 to 1000 nM
COc1cc(-c2cccc(NS(=O)(=O)c3c(F)cccc3F)c2F)cc2c(N3CCOCC3)nc(-c3ccc(N)nc3)nc12 [Example 19] | 100 to 1000 nM
COc1cc(-c2c(F)ccc(NS(=O)(=O)c3c(F)cccc3F)c2F)cc2c(N3CCOCC3)nc(-c3cnc(N)nc3)nc12 [Example 76] | 100 to 1000 nM
CCCNc1ccc(-c2nc(N3CCOCC3)c3nc(-c4cccc(NS(=O)(=O)CCCF)c4F)ccc3n2)cn1 [Example 115] | 100 to 1000 nM
CCOc1cc(-c2cccc(NS(=O)(=O)CCCF)c2F)cc2c(N3CCOCC3)nc(-c3ccc(N)nc3)nc12 [Example 52] | 100 to 1000 nM
COc1cc(-c2cccc(NS(=O)(=O)CCCF)c2F)cc2c(N3CCOC[C@H]3C)nc(-c3ccc(N)nc3)nc12 [Example 42] | 1 to 100 nM
CCOc1cc(-c2cccc(NS(=O)(=O)CCCF)c2F)cc2c(N3CCOC[C@H]3C)nc(-c3cnc(N)nc3)nc12 [Example 137] | 100 to 1000 nM
COc1cc(-c2c(F)ccc(NS(=O)(=O)c3c(F)cccc3F)c2F)cc2c(N3CCOCC3)nc(-c3ccc(N)nc3)nc12 [Example 77] | 100 to 1000 nM
COc1cc2nc(-c3cnc(N)nc3)nc(N3CCOCC3)c2cc1-c1cccc(NS(=O)(=O)CCCF)c1F [Example 11] | 1 to 100 nM
NC(=O)COc1cc(-c2cccc(NS(=O)(=O)CCCF)c2F)cc2c(N3CCOCC3)nc(-c3ccc(N)nc3)nc12 [Example 60] | 1 to 100 nM
